// provenance: patent US11358931B2

experiment: Pharmacokinetics in orchidectomized male rats (plasma, Day 14); type: in vivo; conditions: male, rat, po, 0.01 mg/kg, ORX male rats, Day 14, 0.01 mg/kg, 0 hr conc. substituted for 24 hr, read-out: AUC24
parameter: AUC (ng·h/mL)
Value expressed in ng·h/mL; do not type the unit.

Query N#Cc1ccc(N2CCC[C@@H]2[C@@H](O)C(F)(F)F)cc1C(F)(F)F yields AUC of 15

====

test: Pharmacokinetics in ovariectomized female rats (plasma, Day 14); type: in vivo, rat; details: rat, plasma; OVX female rats, PO, Day 14, 3 mg/kg, mean ± SD of n = 4
parameter: Tmax (min)
API: value field is a number in min; no unit string.

get_value(item= C[C@](O)(COc1ccc(C#N)cc1)C(=O)Nc1ccc(C#N)c(C(F)(F)F)c1 [ostarine] , readout=Tmax) returns 66

Consider N#Cc1ccc(N2CCC[C@@H]2[C@@H](O)C(F)(F)F)cc1C(F)(F)F [Compound 102] . Its measured Tmax is 30
